Could you please report measured MIC for the items listed next?
System: E. coli strain TG1::PnlpD-yeaS
experiment: MIC of purine base analogues on M9 glucose minimal agar plates, yeaS-overexpressing strain
Assay type: cell-based
details: Escherichia coli, 44 h, read-out: MIC for E. coli strain TG1::PnlpD-yeaS
State just the number; it will be interpreted in µg/mL.

# MIC measured on E. coli strain TG1::PnlpD-yeaS for item Nc1nc(N)c2[nH]cnc2n1 [2,6-diaminopurine] = 600

# MIC measured on E. coli strain TG1::PnlpD-yeaS for item Nc1ncnc2nn[nH]c12 [8-azaadenine] = 250

# MIC measured on E. coli strain TG1::PnlpD-yeaS for item Sc1ncnc2nc[nH]c12 [6-mercaptopurine] = 150

# MIC measured on E. coli strain TG1::PnlpD-yeaS for item Nc1nc2nc[nH]c2c(=S)[nH]1 [6-thioguanine] = 450
